Values compiled from patent US20210253725A1.

Target: T1, CD27 protein (His-tagged, Sino Biological Inc. 10039-H08B1) (human, UniProt P26842 20-192)
T1 construct: bought; coated onto ELISA plates; also called human CD27; recombinant protein; not shown: His tag
T1 sequence (looked up): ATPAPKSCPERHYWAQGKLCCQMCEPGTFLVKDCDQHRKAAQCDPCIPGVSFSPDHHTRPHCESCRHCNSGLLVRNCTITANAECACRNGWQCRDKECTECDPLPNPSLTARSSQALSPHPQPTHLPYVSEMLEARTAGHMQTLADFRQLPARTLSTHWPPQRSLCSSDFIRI
Assay: ELISA on coated His-tagged CD27; note: test concentration or dose not given here
Task for the reader: assign each of the following binders its reported ELISA [abs. corr.].
Field: numeric (abs. corr.). Do not append units.

Problem: Please report ELISA [abs. corr.] for the following binder: P018.S.10.A.E01 (antibody, V domains shown, V regions on human Ig constant parts; also called AB27_175) VH: QEQLVESGGGLVQPEGSLTLTCTATGIDFSTNYRSCWVRQAPGKGLEWIACIDTDDSDSTYYASWAKGRFTISKTSSTTVTLQMTSLTAADTATYFCTRAYTTSDYAWSFYLWGPGTLVTVSS VL: DLVMTQTPASVEAAVGGTVTIKCQTSQSISKFLNWYQQTPGQPPKLLIYRASTLESGVPSRFEGSGSGTEFTLTISDLESADAATYYCQCTYGGTSGSVWAFGGGTEVVVK
Solution: 3.3

Problem: Give recorded ELISA [abs. corr.]. P018.S.01.A.A05 (antibody, V domains shown, V regions on human Ig constant parts; also called AB27_2) VH: QEQLEESGGDRVQPEGSLTLTCTASGFSFSATYWICWVRQAPGKGLEWIACIFGRSSSDTYYASWAKGRFTISKTSSTTVTLQMTSLTAADTATYFCARGDSGHPYYYSFNLWGPGTLVTVSS VL: AYDMTQTPASVEVAVGGTVTIKCQASQSIGGYLAWYQQKPGQPPKLLIYGASTLASGVPSRFRGSGSGTEFTLTISDLDSADAATYYCQCTHGTRSDWAFGGGTEVVVK
Solution: 3.15

Problem: Consider the binder P018.S.05.A.F02 (antibody, V domains shown, V regions on human Ig constant parts; also called AB27_91) VH: QSVEESGGRLVTPGTPLTLTCTVSGFSLNNYGITWVRQAPGKGLEYIGYINYGGIAYYASWVNGRFTISKTSTTVDLKMTSLTAADTATYFCARGYGYYSAGNLWGQGTLVTVSS VL: AQVLTQTPSPVSAAVGGTVTINCQASQSVYDNNYLSWYQQKPGQPPKRLIYDASSLASGVPSRFSGSGSGTQFTLTISGVQSDDAATYYCAGEYSCLSDDCIAFGGGTEVVVK . State its measured ELISA [abs. corr.].
Solution: 3.29

Problem: Assign ELISA [abs. corr.] to the following record: P018.S.07.A.F03 (antibody, V domains shown, V regions on human Ig constant parts; also called AB27_127) VH: QSLEESGGRLVTPGTPLTLTCTASGFSLSNYYITWVRQAPGEGLEWIGTISTAGNTYFASWANGRFTISRTSTTVDLKMTSPTTEDTATYFCARDGAGDSNYYRNLWGQGTLVTVSS VL: DIVLTQTPASVEAAVGGTVTIKCQASQSIDRFLAWYQQKPGQPPKLLIVDASTLESGVPSRFSGSGSGTEFTLTISDLESDNAATYYCQQGYSISDIDNVFGGGTEVVVK
Solution: 3.53

Problem: Retrieve ELISA [abs. corr.] measured for P018.S.03.A.G06 (antibody, V domains shown, V regions on human Ig constant parts; also called AB27_59) VH: QSLEESGGDLVKPGASLTLTCTASGFSFSRNNYMCWVRQAPGKGLESIACIHDGNSVGIYYTTWAKGRFTISKTSSTTVTLQMTSLTVADTATYFCARMSYTNDWDPIWGPGTLVTVSS VL: DIVMTQTPASVEAAVGGTVTIDCQASENIYSLLAWYQQKPGQPPKVLISLASNLASGVPSRFKGSGSGTQFSLTISDLESADAATYYCQGYYYSSSTSYENAFGGGTEVVVS and print it.
Solution: 3.4

Problem: Please list ELISA [abs. corr.] recorded for the binder P018.S.06.A.C06 (antibody, V domains shown, V regions on human Ig constant parts; also called AB27_102) VH: QQQLEESGGGLVKPGGTLTLPCKASGFTISSDYDMCWVRQAPGKGLEWITCILGGSGGSTWYANWAKGRFTISQSSSTTVTLQMTSLTDADTATYFCTRASGFTYFELWGPGTLVTVSS VL: AQVLTQTPSSVSAAVGGTVTINCQASQSVYNNKNLAWYQQKPGQPPKLLIYYASTLASGVSSRFKGSGSGTQFTLTISDVQSDDAATYYCQGEFSCSSSDCFAFGGGTEVVVK
Solution: 3.13

Problem: Identify measured ELISA [abs. corr.] associated with P018.S.05.A.G04 (antibody, V domains shown, V regions on human Ig constant parts; also called AB27_93) VH: QEQLKESGGRLVKPDESLTLTCTASGFSLSRYDMSWVRQAPGKGLEWIGSIWSDGDTDYANWAKGRFTISKTSTMVDLKITSPTTEDTATYFCGRGYTAWNLWGPGTLVTVSS VL: ALVMTQTPSPVSATVGGTLTISCQSSESVVGNNALSWFQQKPGQPPKLLIYQASTLASGVSSRFSGSGSGTQFTLTISGVQSDDAATYYCQGTYYSSGWYFAFGGGTEVVVK
Solution: 3.35

Problem: Consider the binder P018.S.06.A.E01 (antibody, V domains shown, V regions on human Ig constant parts; also called AB27_104) VH: QSLEESGGRLVTPGTPLTLTCTASGFSLSSYYMTWVRQAPGEGLEWIGTISTAGNTYFASWVKGRFTISRTSTTVDLKMTSPTTEDTATYFCTRDGAGDSNYYRNLWGQGTLVTVSS VL: AIDMTQTPASVEAAVGGTVTIKCQASESIDRFLAWYQQKPGQPPKLLIVDASTLESGVPSRFSGSGSGTEFTLTISDLESDNAATYYCQQGYAISDIDNVFGGGTEVVVK and give its recorded ELISA [abs. corr.].
Solution: 3.35

Problem: Tell us which ELISA [abs. corr.] value is on record for P018.S.07.A.E03 (antibody, V domains shown, V regions on human Ig constant parts; also called AB27_125) VH: QSLEESGGRLVTPGTPLTLTCTVSGIDLSSYAMGWVRQAPGKGLELIGLIYASDRTHYATWAKGRFTISKSSTTVDLKATSLTTEDTATYFCGRYGRGSGGYYYGMDLWGPGTLVTVSS VL: DVVMTQTPASVEAAVGGTVTIKCQASQSGDNYLSWYQQKSGQPPKLLIYLASTLASGVPSRFRGSRSGTEYTLTISDLESADAATYYCQNYCAGSGVCVGVAFGGGTEVVVK
Solution: 3.28

Problem: Fill in reported ELISA [abs. corr.] for this entry: P018.S.10.A.F05 (antibody, V domains shown, V regions on human Ig constant parts; also called AB27_181) VH: QSVEESGGRLVTPGTPLTLTCTVSGFSLSGYHMCWVRQAPGKGLQYIGIIGSNGVTYYASWAKSRSTITRNTNENTVTLKMTSLTTEDTATYFCARSSGWGARFNLWGQGTLVTVSS VL: AQVLTQTPASVSAAVGGTVTINCQASQSVYNDNELSWYQQKPGQPPKLLIYKASTLTSGVPLRFSGSGSGTQFTLTISDVQSDDAATYYCLGGGSTPSDSTFGGGTEVVVK
Solution: 3.49
